Molecular target: T1, VA peptide (Octet assay of PS557 variants)
T1 construct: Peptide coated on the Octet sensor
Assay: Octet (BLI), peptide on sensor, response after 200 s association

{"Binder": "PS960 (designed binder, Variant of PS557) MPTAASATESAIEDTPAPARPEVDGRTKPKRQPRYHVVLWDDDDHTYQYVVVMLRSLFGIPPERGYRLAKEMDTQGRVIVLTTTREHAELKRDQIHAFGYDRLLARSKGSMKASIEAEE", "Octet response, nm": 9.29}
{"Binder": "PS961 (designed binder, Variant of PS557; also called N41D, V72M, Q55R, E63S, L68M, Y100R) MPTAASATESAIEDTPAPARPEVDGRTKPKRQPRYHVVLWDDDDHTYQYVVVMLRSLFGHPPSRGYRMAKEMDTQGRVIVLTTTREHAELKRDQIHAFGRDRLLARSKGSMKASIEAEE", "Octet response, nm": 11.3}
{"Binder": "PS557 (other, Natural ClpS parent protein; also called WT; wild-type protein) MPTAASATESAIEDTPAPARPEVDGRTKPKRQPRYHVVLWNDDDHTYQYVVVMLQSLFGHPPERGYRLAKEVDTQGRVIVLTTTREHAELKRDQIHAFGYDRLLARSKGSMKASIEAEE", "Octet response, nm": 4.8}
